The measured values listed here are drawn from PubChem BioAssay.

- test-summary: A549 cell viability effects, profiling panel, calcein-AM fluorescence, 48 h, basal (AID 1162); further: test concentration not given here
- condition-summary: higher = more signal
# z-score >= -0.06 gives t, anything below gives f

Below are worked cases with known answers.
[ask] Dear colleague, could you confirm whether O=C(c1ccccc1)N1Cc2ccccc2C[C@@]2(COC(c3ccc(OCCCO)cc3)=N2)C1=O has z-score at or above -0.06?
[reply] t

[ask] Dear colleague, could you confirm whether CN1C(=O)C2C=CC(C(O)C3CC=CCC3)N(N(c3ccccc3)c3ccccc3)C2C1=O (stereo unspecified) has z-score at or above -0.06?
[reply] f

[ask] Dear colleague, could you confirm whether C=CCC(OC(C)=O)[C@@H]1[C@@H](N(Cc2ccc(-c3ccccc3)cc2)C(=O)Cc2ccc(OC)cc2)c2cc(OCCCO)ccc2N1C(=O)Cc1ccc2ccccc2c1 (stereo partly specified) has z-score at or above -0.06?
[reply] t

New cases:
[ask] Dear colleague, could you confirm whether CCCCN1CC=CC23O[C@@H]4C=CCCOC(=O)C4[C@H]2C(=O)N(CCCCCCO)[C@@H]3C1=O (stereo partly specified) has z-score at or above -0.06?
[reply] t

[ask] Dear colleague, could you confirm whether CC(C)NC(=O)[C@@]1(c2ccc([N+](=O)[O-])cc2)CC(=O)N(C2CCCCC2)[C@@H]1c1ccc(CO)cc1I has z-score at or above -0.06?
[reply] t

---

- test-summary: small-molecule binders of probe aNOTCH3, primary screen, biochemical, small-molecule microarray, 635/667 nm fluorescence (AID 1120);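 further: probe is a biotin-tagged antibody raised against NOTCH3 rather than NOTCH3 protein; score merges spot fluorescence near 667 nm with spot signal to noise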
- condition-summary: higher = more signal
# composite z-score >= -0.003 gives y, anything below gives n

Below are worked cases with known answers.
[ask] Dear colleague, could you confirm whether CC(C)c1ccc(NN2C(C(O)c3ccc(B(O)O)cc3)C=CC3C(=O)N(c4ccccc4)C(=O)C32)cc1 (stereo not drawn) has composite z-score at or above -0.003?
[reply] y

[ask] Dear colleague, could you confirm whether COc1ccc(C(O)C2C=CC3C(=O)N(Cc4ccccc4)C(=O)C3N2n2cnnc2)cc1OCc1ccccc1 (stereo not drawn) has composite z-score at or above -0.003?
[reply] y

[ask] Dear colleague, could you confirm whether COC(=O)[C@@]1(Cc2ccc(F)cc2)[C@H]2c3cc(C(=O)N(C)C)n(Cc4ccc(Cl)c(C(F)(F)F)c4)c3C[C@H]2CN1C(=O)c1ccccc1 has composite z-score at or above -0.003?
[reply] y

[ask] Dear colleague, could you confirm whether COc1ccc(/C=C/C=O)cc1 has composite z-score at or above -0.003?
[reply] n

[ask] Dear colleague, could you confirm whether CN(C)CCCCCCNC(=O)[C@@H]1C[C@@H]2C(=O)N[C@@H](Cc3ccccc3)C(=O)N2[C@@H]1c1ccc(O)cc1 has composite z-score at or above -0.003?
[reply] y

New cases:
[ask] Dear colleague, could you confirm whether COc1ccc(CCNC(=O)[C@@]2(C)c3ccccc3C(=O)N(C(C)C)[C@H]2c2ccc(CO)cc2)cc1 has composite z-score at or above -0.003?
[reply] n

[ask] Dear colleague, could you confirm whether Cc1ccc(N2C(=O)c3ccccc3[C@@H](C(=O)NC3CC3)[C@@H]2c2ccc(CO)cc2)nc1 has composite z-score at or above -0.003?
[reply] n

[ask] Dear colleague, could you confirm whether CCOC(=O)C[C@H]1[C@H](OC(=O)c2ccc(-c3ccccc3)cc2)[C@@H](NC(=O)Cc2ccc(OC)cc2)c2cc(OCCCO)ccc2N1C(=O)c1ccccc1 has composite z-score at or above -0.003?
[reply] y

---

- target-entity: Calmodulin-1 (Homo sapiens) (UniProt P0DP23)
- test-summary: CALM1 binders on microarrays, EGTA buffer, profiling panel, biochemical, small-molecule microarray, Cy5-labelled CALM1 (AID 1111);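 further: labelled calmodulin applied in Tris saline Tween buffer holding calcium plus EGTA and DTT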
- condition-summary: Cy5-CALM1 binding fluorescence, higher = more signal
parameter: composite z-score
Answers are plain numbers.

// batch mode: one composite z-score value per listed entry
1. COC(=O)[C@@]1(Cc2ccc(OC)cc2)[C@H]2c3cc(C(=O)N(C)C)n(Cc4ccc(S(C)(=O)=O)cc4)c3C[C@H]2CN1C(=O)c1ccccc1
2. NCCCCCNC(=O)[C@@H]1C[C@@H]2C(=O)N[C@@H](Cc3ccccc3)C(=O)N2[C@@H]1c1ccc(O)cc1
3. C=CCN1C(=O)[C@]2(O[C@H](CCn3cc([C@H](O)c4ccccc4)nn3)[C@@H]([Si](C)(C)c3ccc(OC)cc3)[C@@H]2C)c2ccccc21
4. C=C(C(=O)CC[C@@H](OC(=O)c1cccnc1)c1ccccc1OCCO)C(C)C
5. [N-]=[N+]=Nc1ccccc1[C@@H]1OC(c2ccc(OCCCO)cc2)=N[C@]1(Cc1ccccc1)C(=O)N1CCOCC1
6. COC(=O)[C@@]1(Cc2ccccc2)[C@H]2c3cc(C(=O)N4CCCC4)n(Cc4ccc(S(C)(=O)=O)cc4)c3C[C@H]2CN1C(=O)c1ccccc1

[reply]
[1.36, 1.18, -0.525, -0.948, 1.65, 2.61]

[ask] # get_value(readout='composite z-score', item= COC(=O)[C@@]1(Cc2ccc(OC)cc2)[C@H]2c3cc(C(=O)N4CCCC4)n(CCN4CNCC4=O)c3C[C@H]2CN1C(=O)c1ccccc1 )
[reply] 1.14

---

- System: Wnt5a (protein binding on small-molecule microarray)
- test-summary: Wnt5a binders on small-molecule microarray, primary screen, biophysical, 635/667 nm fluorescence (AID 1142);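 further: fluorescence read at 667 nm with signal to noise per printed feature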
- condition-summary: 635 nm fluorescence, higher = more signal
# composite z-score >= 0.4 gives Satisfied, anything below gives Not satisfied

[ask] Dear colleague, could you confirm whether COC(=O)[C@@]1(Cc2ccc(OC)cc2)[C@H]2c3cc(C(=O)N4CCCC4)n(Cc4ccc(C)c(F)c4F)c3C[C@H]2CN1C(=O)c1ccccc1 has composite z-score at or above 0.4?
[reply] Satisfied

[ask] Dear colleague, could you confirm whether C=C(CCCC)/C(=C/C[C@H](OC(C)=O)c1ccccc1OCCO)c1cc(C(=O)OC)ccc1OC has composite z-score at or above 0.4?
[reply] Not satisfied

[ask] Dear colleague, could you confirm whether CN(C)C(=O)[C@]1(Cc2ccccc2N=[N+]=[N-])N=C(c2ccc(OCCCO)cc2)O[C@@H]1c1ccccc1N=[N+]=[N-] has composite z-score at or above 0.4?
[reply] Satisfied

New cases:
[ask] Dear colleague, could you confirm whether O=C1O[C@@H](c2ccccc2)[C@@H](c2ccccc2)N2[C@@H](c3ccccc3OCCO)[C@]3(C(=O)Nc4ccccc43)[C@@H](C(=O)Nc3nc4ccccc4s3)[C@H]12 has composite z-score at or above 0.4?
[reply] Not satisfied

[ask] Dear colleague, could you confirm whether C=CC(=C)[C@H]1Oc2ccccc2S(=O)(=O)N2CCC[C@@H]12 has composite z-score at or above 0.4?
[reply] Not satisfied

[ask] Dear colleague, could you confirm whether O=C(N1CCCCC1)[C@]1(Cc2ccccc2)N=C(c2ccc(OCCCO)cc2)O[C@@H]1c1ccccc1 has composite z-score at or above 0.4?
[reply] Not satisfied

[ask] Dear colleague, could you confirm whether C=C(/C(=C/C[C@H](OC(C)=O)c1ccc(CO)o1)c1cc(C(=O)OC)ccc1OC)C(C)C has composite z-score at or above 0.4?
[reply] Not satisfied

---

- test-summary: binders of probe aFGF10 on microarray, primary screen, stem cell growth factor project, biochemical, small-molecule microarray, fluorescence 635/667 (AID 1071);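 further: score merges 667 nm spot intensity and signal to noise from triplicate slides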
- condition-summary: higher = more signal
parameter: composite z-score

Sample records with composite z-score:
[ask] # get_value(readout='composite z-score', item= COCCOC(=O)N1C(=O)[C@@]2(c3cc(C#CCC(C(=O)OC)C(=O)OC)ccc31)[C@H](C(=O)Nc1nc3ccccc3s1)[C@H]1C(=O)O[C@H](c3ccccc3)[C@H](c3ccccc3)N1[C@@H]2c1ccccc1OCCO )
[reply] 0.807

[ask] # get_value(readout='composite z-score', item= C=CCNC(=O)[C@H]1[C@@H]2C(=O)O[C@@H](c3ccccc3)[C@@H](c3ccccc3)N2[C@@H](c2ccccc2OCCO)[C@]12C(=O)Nc1ccc(C#CCC(C(=O)OC)C(=O)OC)cc12 )
[reply] 0.423

[ask] # get_value(readout='composite z-score', item= COCCOC(=O)N1C(=O)[C@@]2(c3cc(C#CCC(C(=O)OC)C(=O)OC)ccc31)[C@H](C(=O)N1CCN(c3ncccn3)CC1)[C@H]1C(=O)O[C@H](c3ccccc3)[C@H](c3ccccc3)N1[C@@H]2c1ccccc1OCCO )
[reply] 0.86

[ask] # get_value(readout='composite z-score', item= COc1ccc([C@H]2OC[C@@H]3C[C@@H](Cc4ccccc4)C(=O)N32)cc1 )
[reply] 0.526

[ask] # get_value(readout='composite z-score', item= C=C(CC1([C@@H](NP(=O)(c2ccccc2)c2ccccc2)[C@H]2C[C@@H]2CCCC)CC1)c1ccccc1 )
[reply] 0.194

New cases:
[ask] # get_value(readout='composite z-score', item= OCCCC1=CC(c2cccs2)N(Cc2cc3c(cc2Br)OCO3)CC1 (stereo unspecified) )
[reply] -0.0316
